Give measured inhibition at 1000 µM for each item. Keep answers brief.
System: TNF-α
protocol-notes: Cytokine inhibitory activity in cells: LPS-induced TNF-α in RAW 264.7
Assay type: cell-based, murine
condition-description: Mus musculus, RAW264.7; RAW 264.7, LPS 1 μg/mL; test conc. 1 mM; read-out: TNF-α Inhibition Rate (%)
Express your answer in %, writing the number without its unit.

Exercise: Observed inhibition at 1000 µM on TNF-α for Cc1cc2c(c(Oc3ccccc3)n1)C(=O)OCC2 , please.
Key: 25

Exercise: Which measured inhibition at 1000 µM belongs to COc1nc(-c2ccccc2)cc2c1C(=O)OCC2 , tested on TNF-α?
Key: 100

Exercise: Fill in the recorded inhibition at 1000 µM for this molecule, with TNF-α as test system: O=C1OCCc2c1cnc1ccccc21
Key: 35

Exercise: Find inhibition at 1000 µM (TNF-α) for the entry Cc1nc(-c2ccco2)cc2c1C(=O)OCC2
Key: 87

Exercise: Request - read-out inhibition at 1000 µM | tested on TNF-α | molecule Cc1nc(O)c2c(c1-c1ccccc1)CCOC2=O
Key: 78
